I'd be grateful if you could share measured isoTOP-ABPP reactivity ratio at lysine Q9UBP0_K180 for these entries.
Experimental Target: SPAST Spastin (Homo sapiens)
Construct: endogenous in cells; host or cells: MDA-MB-231 lysate
Sequence (Q9UBP0 whole entry): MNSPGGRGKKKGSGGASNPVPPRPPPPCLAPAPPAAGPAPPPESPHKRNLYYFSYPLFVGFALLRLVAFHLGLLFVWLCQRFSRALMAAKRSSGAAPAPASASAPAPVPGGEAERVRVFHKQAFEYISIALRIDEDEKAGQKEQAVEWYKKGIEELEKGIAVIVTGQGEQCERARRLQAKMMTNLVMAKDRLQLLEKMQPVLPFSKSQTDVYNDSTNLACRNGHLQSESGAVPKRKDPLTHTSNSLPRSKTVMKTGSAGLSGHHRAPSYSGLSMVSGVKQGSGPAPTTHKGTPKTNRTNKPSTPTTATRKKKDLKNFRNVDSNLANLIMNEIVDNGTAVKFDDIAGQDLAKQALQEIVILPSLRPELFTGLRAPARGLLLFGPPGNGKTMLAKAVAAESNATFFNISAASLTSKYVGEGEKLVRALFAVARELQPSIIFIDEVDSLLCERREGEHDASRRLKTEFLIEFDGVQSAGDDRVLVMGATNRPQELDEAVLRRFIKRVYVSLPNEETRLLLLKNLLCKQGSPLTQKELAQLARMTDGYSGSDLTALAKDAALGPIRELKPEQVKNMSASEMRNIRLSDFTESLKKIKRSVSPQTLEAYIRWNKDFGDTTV
Assay Procedure: competitive isoTOP-ABPP
Assay type: binding
Run Conditions: 50 uM, 231 sol, in vitro
I'd appreciate a reply containing only the number, no unit.

stdin: Give a short answer stating reported isoTOP-ABPP reactivity ratio at lysine Q9UBP0_K180 for O=C(Oc1ccc([N+](=O)[O-])cc1[N+](=O)[O-])c1cc(C(F)(F)F)cc(C(F)(F)F)c1 .
stdout: 1.1

stdin: Consider the compound O=C(Oc1c(F)c(F)c(F)c(F)c1F)c1ccc2ccccc2n1 . State its measured isoTOP-ABPP reactivity ratio at lysine Q9UBP0_K180.
stdout: 1.2

stdin: State its isoTOP-ABPP reactivity ratio at lysine Q9UBP0_K180: O=C(CN1C(=O)c2ccccc2C1=O)Oc1c(F)c(F)c(F)c(F)c1F
stdout: 2.1

stdin: Fill in isoTOP-ABPP reactivity ratio at lysine Q9UBP0_K180 for record O=C(CCc1cn(-c2ccccc2)nc1-c1ccccc1)Oc1ccc([N+](=O)[O-])cc1[N+](=O)[O-]
stdout: 1.2

stdin: Provide isoTOP-ABPP reactivity ratio at lysine Q9UBP0_K180 value for the following compound: Cn1cc(CC(=O)Oc2ccc([N+](=O)[O-])cc2[N+](=O)[O-])c2ccccc21
stdout: 2.5

stdin: For the compound COc1cc(CCC(=O)Oc2ccc([N+](=O)[O-])cc2[N+](=O)[O-])cc(OC)c1OC , give its measured isoTOP-ABPP reactivity ratio at lysine Q9UBP0_K180 value.
stdout: 0.7

stdin: Report measured isoTOP-ABPP reactivity ratio at lysine Q9UBP0_K180; entry is CCn1cc(C(=O)Oc2c(F)c(F)c(F)c(F)c2F)c(=O)c2ccc(C)nc21
stdout: 1.0

stdin: Tell me measured isoTOP-ABPP reactivity ratio at lysine Q9UBP0_K180 for O=C(Oc1c(F)c(F)c(F)c(F)c1F)C1CCN(C(=O)OCc2ccccc2)CC1 please.
stdout: 1.1

====

Experimental Target: G6PD Glucose-6-phosphate 1-dehydrogenase (Homo sapiens, UniProt P11413)
Construct: isoTOP-ABPP experiments performed in cell lysates (in vitro); endogenous in cells; host or cells: MDA-MB-231 soluble lysate
Sequence (P11413 whole entry): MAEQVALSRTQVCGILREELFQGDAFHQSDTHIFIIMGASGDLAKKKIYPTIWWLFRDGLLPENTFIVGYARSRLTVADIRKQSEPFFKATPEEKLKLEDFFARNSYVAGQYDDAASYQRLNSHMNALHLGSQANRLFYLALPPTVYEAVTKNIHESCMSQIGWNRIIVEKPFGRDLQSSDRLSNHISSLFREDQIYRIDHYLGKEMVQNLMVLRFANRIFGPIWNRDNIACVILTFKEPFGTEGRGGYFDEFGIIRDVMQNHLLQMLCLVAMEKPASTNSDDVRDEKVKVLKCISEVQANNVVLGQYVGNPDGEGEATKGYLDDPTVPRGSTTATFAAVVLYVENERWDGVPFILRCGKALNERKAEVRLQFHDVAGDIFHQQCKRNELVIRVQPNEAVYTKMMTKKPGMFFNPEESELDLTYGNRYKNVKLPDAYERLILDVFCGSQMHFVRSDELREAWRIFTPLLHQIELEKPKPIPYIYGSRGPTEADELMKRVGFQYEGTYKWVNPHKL
Assay Procedure: competitive isoTOP-ABPP
Assay type: binding
Run Conditions: 50 uM, 231 sol, in vitro
API: label(entry) gives YES if the entry's isoTOP-ABPP reactivity ratio at lysine P11413_K171 is strictly smaller than 0.9; on equality or larger values it gives NO.

stdin: Input O=C(Oc1c(F)c(F)c(F)c(F)c1F)c1ccc2ccccc2n1 ; condition: isoTOP-ABPP reactivity ratio at lysine P11413_K171 strictly below 0.9. Does it hold?
stdout: YES

stdin: Is isoTOP-ABPP reactivity ratio at lysine P11413_K171 strictly under 0.9 for the entry COc1cc(CCC(=O)Oc2ccc([N+](=O)[O-])cc2[N+](=O)[O-])cc(OC)c1OC ?
stdout: NO

stdin: hey, is isoTOP-ABPP reactivity ratio at lysine P11413_K171 for O=C(CCc1coc2cc(F)ccc2c1=O)Oc1c(F)c(F)c(F)c(F)c1F lower than 0.9 or not?
stdout: NO

stdin: Answer whether the compound O=C(Oc1ccc([N+](=O)[O-])cc1[N+](=O)[O-])c1cc(C(F)(F)F)cc(C(F)(F)F)c1 has isoTOP-ABPP reactivity ratio at lysine P11413_K171 strictly less than 0.9
stdout: NO

stdin: Field: below-cutoff. Rule: recorded isoTOP-ABPP reactivity ratio at lysine P11413_K171 strictly less than 0.9. Subject: O=C(Oc1ccc([N+](=O)[O-])cc1[N+](=O)[O-])C(c1ccccc1)c1ccccc1 [fragment 30, 2,4-Dinitrophenyl 2,2-diphenylacetate]
stdout: NO

====

Experimental Target: G6PD Glucose-6-phosphate 1-dehydrogenase (Homo sapiens)
Construct: isoTOP-ABPP experiments performed in cell lysates (in vitro); endogenous in cells; host or cells: MDA-MB-231 soluble lysate
Assay Procedure: competitive isoTOP-ABPP
Format: binding
Run Conditions: 50 uM, in vitro, sol, 231
Experimental Readout: isoTOP-ABPP ratio (R) at liganded lysine P11413_K171
No unit in the answer, only the number.

stdin: Supply measured isoTOP-ABPP ratio (R) at liganded lysine P11413_K171 of O=C(CC12CC3CC(CC(C3)C1)C2)Oc1ccc([N+](=O)[O-])cc1[N+](=O)[O-] in your reply.
stdout: 0.9

stdin: Entry CC(C)(C)OC(=O)NCCCC(=O)Oc1ccc([N+](=O)[O-])cc1[N+](=O)[O-] needs its isoTOP-ABPP ratio (R) at liganded lysine P11413_K171 filled in; supply it.
stdout: 1.0

stdin: Provide measured isoTOP-ABPP ratio (R) at liganded lysine P11413_K171 value, entry: O=C(Oc1ccc([N+](=O)[O-])cc1[N+](=O)[O-])C1CCN(C(=O)OCc2ccccc2)CC1
stdout: 0.9

stdin: Name the recorded isoTOP-ABPP ratio (R) at liganded lysine P11413_K171 of the item O=C(Oc1ccc([N+](=O)[O-])cc1[N+](=O)[O-])c1ccc(-c2ccccc2)cc1 in your answer.
stdout: 0.9

stdin: Note isoTOP-ABPP ratio (R) at liganded lysine P11413_K171 for the compound shown: O=C(Oc1ccc([N+](=O)[O-])cc1[N+](=O)[O-])c1ccc2ccccc2n1
stdout: 1.7

stdin: Give isoTOP-ABPP ratio (R) at liganded lysine P11413_K171 for the following compound: O=C(Oc1ccc([N+](=O)[O-])cc1[N+](=O)[O-])C(c1ccccc1)(c1ccccc1)c1ccccc1 [fragment 42, 2,4-Dinitrophenyl 2,2,2-triphenylacetate]
stdout: 0.9

stdin: Please give the documented isoTOP-ABPP ratio (R) at liganded lysine P11413_K171 of O=C(Oc1ccc([N+](=O)[O-])cc1[N+](=O)[O-])c1ccc(Oc2ccccc2)cc1 [fragment 39, 2,4-Dinitrophenyl 4-phenoxybenzoate]
stdout: 1.1

stdin: Please give the documented isoTOP-ABPP ratio (R) at liganded lysine P11413_K171 of O=C(CCc1coc2cc(F)ccc2c1=O)Oc1ccc([N+](=O)[O-])cc1[N+](=O)[O-]
stdout: 1.0

stdin: Supply measured isoTOP-ABPP ratio (R) at liganded lysine P11413_K171 of CC(=O)Oc1ccc([N+](=O)[O-])cc1[N+](=O)[O-] [fragment 43, 2,4-Dinitrophenyl acetate] in your reply.
stdout: 1.0

stdin: Quickly give me recorded isoTOP-ABPP ratio (R) at liganded lysine P11413_K171 for O=C(Oc1ccc([N+](=O)[O-])cc1[N+](=O)[O-])c1ccccc1Nc1cccc(C(F)(F)F)c1
stdout: 1.9

====

Experimental Target: EEF2 Elongation factor 2 (Homo sapiens, UniProt P13639)
Construct: isoTOP-ABPP experiments performed in cell lysates (in vitro); endogenous in cells; host or cells: soluble proteome of human cancer cell lines (MDA-MB-231; Ramos and Jurkat also prepared)
Assay Procedure: competitive isoTOP-ABPP
Type: binding
Run Conditions: P13639_K318; 50 uM, 231 sol, in vitro
Could you please report measured R value (DMSO/fragment) for probe 1 labeling for the items listed next?

stdin: Name the recorded R value (DMSO/fragment) for probe 1 labeling of the item O=C(Oc1c(F)c(F)c(F)c(F)c1F)c1cc(C(F)(F)F)cc(C(F)(F)F)c1 in your answer.
stdout: 1.2

stdin: For the molecule Cn1cc(CC(=O)Oc2c(F)c(F)c(F)c(F)c2F)c2ccccc21 , report R value (DMSO/fragment) for probe 1 labeling.
stdout: 5.6

stdin: Give reported R value (DMSO/fragment) for probe 1 labeling value for O=C(Oc1c(F)c(F)c(F)c(F)c1F)C(c1ccccc1)c1ccccc1 [fragment 20, Pentafluorophenyl 2,2-diphenylacetate]
stdout: 1.1

stdin: Specify measured R value (DMSO/fragment) for probe 1 labeling for O=C(CCc1cn(-c2ccccc2)nc1-c1ccccc1)Oc1c(F)c(F)c(F)c(F)c1F .
stdout: 1.1

stdin: Find the measured R value (DMSO/fragment) for probe 1 labeling of COc1cc(CCC(=O)Oc2c(F)c(F)c(F)c(F)c2F)cc(OC)c1OC and report it.
stdout: 1.6

====

Experimental Target: RPL10 60S ribosomal protein L10 (Homo sapiens)
Construct: isoTOP-ABPP experiments performed in cell lysates (in vitro); endogenous in cells; host or cells: soluble proteome of human cancer cell lines (MDA-MB-231; Ramos and Jurkat also prepared)
Assay Procedure: competitive isoTOP-ABPP
Type: binding
Run Conditions: 50 uM, in vitro, sol, 231
Description: In vitro covalent fragment treatment for isoTOP-ABPP. All compounds were made up as solutions in DMSO (100×) and were used at a final concentration of 50 μM for activated esters and 100 μM for guanidinylating agents. […] R value calculation and processing. The ratios of light and heavy MS1 peaks for each unique peptide were quantified with a CIMAGE software using default parameters (3 MS1 acquisitions per peak and signal to noise threshold set to 2.5). […]
Experimental Readout: isoTOP-ABPP ratio (R) at liganded lysine P27635_K121
API doc: respond with a numeric literal and nothing else, no unit.

stdin: Kindly indicate its recorded isoTOP-ABPP ratio (R) at liganded lysine P27635_K121. Item: O=C(Oc1ccc([N+](=O)[O-])cc1[N+](=O)[O-])C1CCN(C(=O)OCc2ccccc2)CC1 [fragment 34]
stdout: 1.3

stdin: Indicate its recorded isoTOP-ABPP ratio (R) at liganded lysine P27635_K121; the molecule in question is O=C(CC12CC3CC(CC(C3)C1)C2)Oc1ccc([N+](=O)[O-])cc1[N+](=O)[O-] [fragment 38]
stdout: 20.0

stdin: Recall and state the measured isoTOP-ABPP ratio (R) at liganded lysine P27635_K121 for O=C(Oc1ccc([N+](=O)[O-])cc1[N+](=O)[O-])c1ccc(-c2ccccc2)cc1 [fragment 37] .
stdout: 0.8

stdin: Report measured isoTOP-ABPP ratio (R) at liganded lysine P27635_K121; entry is O=C(Oc1ccc([N+](=O)[O-])cc1[N+](=O)[O-])c1ccc2ccccc2n1 [fragment 35]
stdout: 0.6
